Origin of measurements: patent US20100222258A1

Target: T1, TNF-R2 (a protein having the amino acid sequence, Accession No. M55994 registered at GENBANK) (UniProt P20333 23-257, limits assumed)
T1 construct: also called TNF receptor with 75 kilo daltons
T1 sequence (looked up): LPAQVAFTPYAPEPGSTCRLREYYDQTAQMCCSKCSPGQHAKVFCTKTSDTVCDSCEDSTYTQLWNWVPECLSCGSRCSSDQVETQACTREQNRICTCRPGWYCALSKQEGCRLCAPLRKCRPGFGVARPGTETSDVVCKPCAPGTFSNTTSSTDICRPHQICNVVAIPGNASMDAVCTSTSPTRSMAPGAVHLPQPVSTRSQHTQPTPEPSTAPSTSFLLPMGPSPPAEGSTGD
Test: SPR (BIACORE 2000), receptor on sensor tip; grade 1 = 0.001 to 0.1 time that of recombinant TNF-α
Excerpt: Using the above detector based on surface plasmon resonance effect again, the resulting clones binding to TNF-R1 (or TNF-R2) were subjected to the remaining sensor tip conjugated with TNF-R2 (or TNF-R1) to measure receptor binding affinity and select clones having a variation of receptor binding affinity. […] The resulting DNAs were digested with restrict enzymes NdeI and BamHI to obtain DNA fragments. […]
RECORDED_ENDPOINT: binding affinity relative to recombinant TNF-α

BINDER	EXPERIMENTAL_VALUE
TNF mutant protein of clone No. 23 (ligand, Mutant of lysine-replaced TNF, made in E. coli) VRSSSRTPSDMPVAHVVANPQAEGQLQWLNRRANALLANGVELRDNQLVVPSEGLYLIYSQVLFSGQGCPSTHVLLTHTISRITTAYSGPVNLLSAIRSPCQRETPEGAEANPWYEPIYLGGVFQLEPGDRLSAEINRPDYLDFAESGQVYFGIIAL	0.001 to 0.1 fold
TNF mutant protein of clone No. 26 (ligand, Mutant of lysine-replaced TNF, made in E. coli) VRSSSRTPSDMPVAHVVANPQAEGQLQWLNRRANALLANGVELRDNQLVVPSEGLYLIYSQVLFSGQGCPSTHVLLTHTISRISSHYRFPVNLLSAIRSPCQRETPEGAEANPWYEPIYLGGVFQLEPGDRLSAEINRPDYLDFAESGQVYFGIIAL	0.001 to 0.1 fold
